# Tested on: MOLT-4
# TEST_DETAILS: NCI tumour cell line growth inhibition, 48 h
Activity calls are given as the source filed them. No stated cut-off is given here; in the data, active = GI50 up to about 1.1 µM and inactive = higher.
Entries and their GI50

O=C(Nc1ccc(S(=O)(=O)N[C@@H](C(=O)O)c2ccccc2)cc1)c1ccc(F)cc1 :: > 100 µM (inactive)
CCOC(=O)C(=O)C1C(=O)Nc2ccccc21 (stereo not drawn) :: > 100 µM (inactive)

For the next question, use this compound.
Q: // GI50 lookup, key: Cc1cccc(-c2nnc(S)[nH]2)c1
Ans: 89.5 µM (inactive)

----------
Entries and their GI50
# Tested on: HL-60
# TEST_DETAILS: NCI tumour cell line growth inhibition, 48 h
Calls of active or inactive are those of the source. No stated cut-off is given here; in the data, active = GI50 up to about 1.1 µM and inactive = higher.

Example cases with answers are listed next.
Cn1c2cn[nH]c(=O)c2c2ccc3ccccc3c21 :: 85.5 µM (inactive)
CC(C)(C)C(=O)OC(N)/C=C/c1ccccc1 (configuration not stated) :: 76.2 µM (inactive)
CCOC(=O)C1(C)CCCc2sc(N)c(C#N)c21 (configuration not stated) :: > 100 µM (inactive)

Q: // GI50 lookup, key: OC(c1ccsc1)c1cc2ccccc2s1 (configuration not stated)
Ans: > 10 µM (inactive)
